- subject of test: HERG potassium channel (human ether-a-go-go related gene) (Homo sapiens)
- Sequence (Q12809 whole entry): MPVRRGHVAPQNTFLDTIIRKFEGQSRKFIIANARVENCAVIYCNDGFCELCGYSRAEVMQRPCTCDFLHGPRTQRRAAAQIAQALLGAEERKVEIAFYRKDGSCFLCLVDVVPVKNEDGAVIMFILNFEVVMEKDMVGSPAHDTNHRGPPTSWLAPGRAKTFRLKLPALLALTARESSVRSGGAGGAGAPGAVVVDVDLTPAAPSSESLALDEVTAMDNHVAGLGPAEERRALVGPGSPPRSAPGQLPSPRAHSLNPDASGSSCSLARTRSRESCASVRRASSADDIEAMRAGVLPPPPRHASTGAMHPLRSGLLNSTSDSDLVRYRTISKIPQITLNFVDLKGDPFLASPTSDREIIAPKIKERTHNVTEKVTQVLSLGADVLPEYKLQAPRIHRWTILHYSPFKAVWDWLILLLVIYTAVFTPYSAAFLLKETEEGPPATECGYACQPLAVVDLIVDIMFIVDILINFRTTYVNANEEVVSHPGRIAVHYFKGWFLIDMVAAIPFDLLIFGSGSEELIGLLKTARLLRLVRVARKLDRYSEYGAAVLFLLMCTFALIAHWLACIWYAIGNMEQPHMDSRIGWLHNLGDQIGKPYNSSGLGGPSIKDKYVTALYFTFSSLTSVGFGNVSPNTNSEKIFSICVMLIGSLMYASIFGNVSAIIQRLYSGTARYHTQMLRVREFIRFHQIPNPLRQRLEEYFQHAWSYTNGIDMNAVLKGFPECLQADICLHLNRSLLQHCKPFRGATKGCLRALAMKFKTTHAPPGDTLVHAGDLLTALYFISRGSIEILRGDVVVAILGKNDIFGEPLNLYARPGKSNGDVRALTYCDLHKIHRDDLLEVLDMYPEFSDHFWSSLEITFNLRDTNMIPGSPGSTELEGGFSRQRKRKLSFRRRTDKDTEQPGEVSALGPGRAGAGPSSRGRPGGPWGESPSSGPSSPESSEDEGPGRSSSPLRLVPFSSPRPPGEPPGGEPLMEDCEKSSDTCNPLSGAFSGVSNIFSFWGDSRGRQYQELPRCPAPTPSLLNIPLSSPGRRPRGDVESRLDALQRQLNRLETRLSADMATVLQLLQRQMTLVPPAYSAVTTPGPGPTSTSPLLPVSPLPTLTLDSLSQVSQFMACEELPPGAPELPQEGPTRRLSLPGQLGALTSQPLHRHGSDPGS
pIC50: −log10 of the molar value.

{"compound": "CCCCCCCCCCCC[N+](C)(C)CCOc1ccccc1 [DB, domiphen bromide]", "pIC50": 8.05}
